# System: MALME-3M melanoma
# Protocol summary: NCI tumour cell line growth inhibition, 48 h; in the data active = GI50 below about 0.43 µM; inactive = the rest
Labels: active, inactive

Compound: O=C(Nc1ccccc1O)c1ccc(NS(=O)(=O)c2cccc3cccnc23)cc1
Discrete label: inactive
--
Compound: c1ccc([As]=[As]c2ccccc2)cc1 (stereo not given)
Discrete label: inactive
--
Compound: COc1ccc(N(/C=C/C(=O)C(F)(F)F)CC(=O)c2ccc(Cl)cc2)cc1
Discrete label: inactive
--
Compound: COc1ccc(C(CC(=O)c2ccccc2)C(C(=O)c2ccccc2)C(c2ccc(OC)cc2)C2C(=O)NC(=S)NC2=O)cc1 (stereo not given)
Discrete label: inactive
--
Compound: CN(C)c1ccc(/C=c2/c3ccccc3n3c2c2cc(F)ccc2[n+]3C)cc1
Discrete label: inactive
--
Compound: COc1cc(NCCN=C(N)NC(N)=NC(C)C)c2ncccc2c1
Discrete label: inactive
--
Compound: O=C(Nc1cc(Oc2cc(F)c(NC(=O)C3(C(=O)Nc4ccc(F)cc4)CC3)cc2F)ccn1)C1CC1
Discrete label: active
--
Compound: COc1cc2c(=O)n(CCN(C)C)c3c4cc5c(cc4ccc3c2cc1OC)OCO5
Discrete label: active
--
Compound: COc1ccccc1NS(=O)(=O)c1ccc2oc(SC(C)C)nc2c1
Discrete label: inactive
--
Compound: C[C@@H]1COCCN1c1cc(C2([S@@](C)(=N)=O)CC2)nc(-c2ccnc3[nH]ccc23)n1
Discrete label: inactive
--
Compound: CCS(=O)(=O)c1ccc(OC)c(Nc2ncc(-c3ccccc3Cl)o2)c1
Discrete label: inactive
--
Compound: NC(=S)N=Nc1c(O)c2ccccc2c2ccccc12
Discrete label: inactive
--
Compound: Cc1cnc(Nc2ccc(N3CCN(C)CC3)cc2)nc1Nc1ccc(Cl)c(NS(=O)(=O)C(C)(C)C)c1
Discrete label: inactive
--
Compound: Nc1nc(=O)n([C@@H]2CS[C@H](CO)O2)cc1F
Discrete label: inactive
--
Compound: Cc1cc(Cl)ccc1Nc1nc(C(F)(F)F)ccc1C(=O)N/N=C/c1ccccc1Cl
Discrete label: inactive
